Here the recorded Cmax is given for each entry.
Assay: Pharmacokinetic evaluation in mice after intragastric administration (plasma concentration by LC/MS/MS)
Type: in vivo
Details: mouse, Balb/C female mice, single PO 10 mg/kg

[
  {
    "Compound": "O=c1[nH]cc(-c2cc([C@H]3C[C@@H]3c3ccccc3)c(Cl)nn2)c(=O)[nH]1",
    "Value unit": "ng/mL",
    "Cmax": 5410
  },
  {
    "Compound": "Cc1nnc(-c2c[nH]c(=O)[nH]c2=O)cc1[C@H]1C[C@@H]1C(C)C [Compound D1, reference compound]",
    "Value unit": "ng/mL",
    "Cmax": 547
  },
  {
    "Compound": "C=C[C@H]1C[C@@H]1c1cc(-c2c[nH]c(=O)[nH]c2=O)nnc1Cl",
    "Value unit": "ng/mL",
    "Cmax": 10400
  }
]

Origin of measurements: patent US20230321100A1
